method summary: Selectivity index, ratio of CC50 for cytotoxicity against human Huh7.5.1 cells to EC50 for antiviral activity against HCV infected in human Huh7.5.1 cells
Assay type: toxicity, cell-based
conditions: read-out: Ratio CC50/EC50
Criterion: selectivity ratio strictly under 1000. Met: true (1). Not met: false (0).

Solved entries (count: 3):
CN1CCCN(c2ccc(C(F)(F)F)c(CN3CCN(c4ccc(Cl)cc4)CC3)c2)CC1
true (1)
CN1CCCN(c2ccc(C#N)c(CN3CCN(C(c4ccc(F)cc4)c4ccc(F)cc4)CC3)c2)CC1
false (0)
CN1CCCN(c2ccc(C#N)c(CN3CCN(C(c4ccccc4)c4ccc(Cl)cc4)CC3)c2)CC1 (stereo not drawn)
false (0)

Shifting focus to the compound that follows.
Regarding CC(c1ccccc1)N1CCN(Cc2cc(N3CCCN(C)CC3)ccc2C#N)CC1 (stereo not drawn) , kindly confirm whether its selectivity ratio is beneath 1000.
true (1)

Every entry's value here was drawn from ChEMBL document CHEMBL5038651.
